biological target: p110β-PI3K (Homo sapiens, UniProt P42338); construct: The α and β isoforms of the PI3K were immunoprecipitated from a platelet lysate; assay: In vitro enzyme assay, p110β immunoprecipitated from platelet lysate (Biological Example 1); details: Table I; read-out: inhibitory concentration, beta
Sequence (P42338 whole entry, canonical isoform): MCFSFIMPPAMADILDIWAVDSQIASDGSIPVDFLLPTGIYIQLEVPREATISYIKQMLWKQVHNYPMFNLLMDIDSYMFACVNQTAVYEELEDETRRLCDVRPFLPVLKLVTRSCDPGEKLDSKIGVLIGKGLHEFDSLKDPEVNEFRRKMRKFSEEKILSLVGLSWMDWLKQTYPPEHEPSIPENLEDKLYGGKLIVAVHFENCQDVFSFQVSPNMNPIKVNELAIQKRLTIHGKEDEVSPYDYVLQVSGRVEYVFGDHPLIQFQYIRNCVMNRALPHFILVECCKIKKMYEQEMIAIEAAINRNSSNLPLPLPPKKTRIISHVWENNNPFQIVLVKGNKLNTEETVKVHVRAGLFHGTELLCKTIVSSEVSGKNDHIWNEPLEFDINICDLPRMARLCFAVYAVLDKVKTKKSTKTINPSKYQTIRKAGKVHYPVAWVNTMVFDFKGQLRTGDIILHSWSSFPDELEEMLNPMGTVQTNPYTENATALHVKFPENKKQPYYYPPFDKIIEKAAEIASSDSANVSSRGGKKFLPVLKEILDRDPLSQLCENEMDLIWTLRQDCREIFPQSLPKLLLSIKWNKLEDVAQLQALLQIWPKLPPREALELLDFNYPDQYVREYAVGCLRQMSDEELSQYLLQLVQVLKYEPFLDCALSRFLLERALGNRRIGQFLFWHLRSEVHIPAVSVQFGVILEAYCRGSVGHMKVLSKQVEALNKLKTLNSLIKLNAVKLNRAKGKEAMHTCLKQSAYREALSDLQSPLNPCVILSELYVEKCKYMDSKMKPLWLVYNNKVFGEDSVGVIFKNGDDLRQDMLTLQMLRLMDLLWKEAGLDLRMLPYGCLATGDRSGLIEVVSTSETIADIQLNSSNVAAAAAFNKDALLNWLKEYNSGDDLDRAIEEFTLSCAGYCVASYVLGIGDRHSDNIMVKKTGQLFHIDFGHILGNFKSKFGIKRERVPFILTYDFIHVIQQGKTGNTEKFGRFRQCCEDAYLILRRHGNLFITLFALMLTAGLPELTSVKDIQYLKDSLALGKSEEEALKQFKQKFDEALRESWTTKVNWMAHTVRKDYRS
Sequence (P27986 whole entry partner, canonical isoform): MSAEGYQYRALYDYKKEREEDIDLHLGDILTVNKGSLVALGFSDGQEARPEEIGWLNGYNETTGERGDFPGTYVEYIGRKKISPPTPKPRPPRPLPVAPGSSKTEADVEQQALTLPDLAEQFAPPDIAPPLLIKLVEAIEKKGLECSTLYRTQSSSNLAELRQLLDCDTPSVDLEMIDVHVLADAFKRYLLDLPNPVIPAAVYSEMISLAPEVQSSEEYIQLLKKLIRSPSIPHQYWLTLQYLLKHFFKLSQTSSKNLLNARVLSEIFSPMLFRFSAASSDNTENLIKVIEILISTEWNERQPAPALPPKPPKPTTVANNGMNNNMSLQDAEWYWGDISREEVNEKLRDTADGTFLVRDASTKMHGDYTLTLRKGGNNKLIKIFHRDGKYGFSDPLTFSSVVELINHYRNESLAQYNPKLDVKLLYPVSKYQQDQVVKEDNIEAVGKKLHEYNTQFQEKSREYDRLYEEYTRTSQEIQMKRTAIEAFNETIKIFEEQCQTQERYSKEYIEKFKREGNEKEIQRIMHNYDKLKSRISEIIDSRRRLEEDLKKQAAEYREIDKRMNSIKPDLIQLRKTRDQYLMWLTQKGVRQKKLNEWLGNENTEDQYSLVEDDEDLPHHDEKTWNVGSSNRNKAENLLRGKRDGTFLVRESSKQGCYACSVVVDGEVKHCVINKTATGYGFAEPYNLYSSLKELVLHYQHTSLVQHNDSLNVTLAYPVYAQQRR
Please note: IC50 exactly at 50 nM is N. Only values below 50 nM get Y.

# compound, class-assignment
data = [
    ("Cc1cc(C(C)Nc2cccc(Cl)c2)c2nc(N3CCOCC3)cc(=O)n2c1 (racemic)", "Y"),
    ("Cc1cc(C(C)Nc2cc(F)cc(F)c2)c2nc(N3CCOCC3)cc(=O)n2c1 (racemic)", "Y"),
    ("Cc1cc(C(C)Nc2cccc(C(F)(F)F)c2)c2nc(N3CCOCC3)cc(=O)n2c1 (racemic)", "N"),
    ("Cc1cc(CN(C)c2ccccc2)c2nc(N3CCOCC3)cc(=O)n2c1 (racemic)", "Y"),
]

---

biological target: p38α (Homo sapiens); test: Ser/Thr kinase assay by MDS Pharma Services (Panlabs); type: biochemical
Sequence (Q16539 whole entry): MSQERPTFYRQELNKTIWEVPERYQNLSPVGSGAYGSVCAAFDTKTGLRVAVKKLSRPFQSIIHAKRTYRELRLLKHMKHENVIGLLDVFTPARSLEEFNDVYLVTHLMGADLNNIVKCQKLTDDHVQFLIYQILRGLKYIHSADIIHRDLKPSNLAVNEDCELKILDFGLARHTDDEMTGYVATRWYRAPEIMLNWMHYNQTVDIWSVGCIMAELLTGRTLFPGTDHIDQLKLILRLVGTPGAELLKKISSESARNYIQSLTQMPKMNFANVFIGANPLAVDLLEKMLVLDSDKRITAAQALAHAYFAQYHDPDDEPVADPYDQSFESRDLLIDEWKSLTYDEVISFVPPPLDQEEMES

# compound, tested-target, IC50
records = [
    ("Cc1cc(C(C)Nc2ccccc2)c2nc(N3CCOCC3)cc(=O)n2c1 (racemic)", "p38α (Homo sapiens)", "> 10 µM"),
]

---

biological target: Casein Kinase 2 (Homo sapiens); assay: Ser/Thr kinase assay by MDS Pharma Services (Panlabs); format: biochemical
Sequence (P68400 whole entry): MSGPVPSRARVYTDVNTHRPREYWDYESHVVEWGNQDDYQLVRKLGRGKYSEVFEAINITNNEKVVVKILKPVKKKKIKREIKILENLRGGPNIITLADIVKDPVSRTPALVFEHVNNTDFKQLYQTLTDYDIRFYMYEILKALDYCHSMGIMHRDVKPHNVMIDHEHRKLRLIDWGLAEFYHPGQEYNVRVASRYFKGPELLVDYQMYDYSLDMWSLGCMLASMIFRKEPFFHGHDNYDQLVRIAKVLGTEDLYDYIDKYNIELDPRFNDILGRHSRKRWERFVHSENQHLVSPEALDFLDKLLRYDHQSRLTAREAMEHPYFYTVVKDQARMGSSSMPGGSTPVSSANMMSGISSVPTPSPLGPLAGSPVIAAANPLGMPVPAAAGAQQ

# molecule, IC50
rows = [
    ("Cc1cc(C(C)Nc2ccccc2)c2nc(N3CCOCC3)cc(=O)n2c1 (racemic) [TGX-221]", "> 10 µM"),
]

---

target: p110δ-PI3K (Homo sapiens, UniProt O00329); construct: from tissue; host or cells: washed platelets (lysate, immunoprecipitated with anti-p110δ antibody); assay: In vitro enzyme assay, p110δ immunoprecipitated from platelet lysate (Biological Example 1); format: biochemical; conditions: Table I; read-out: inhibitory concentration, delta
Sequence (O00329 whole entry): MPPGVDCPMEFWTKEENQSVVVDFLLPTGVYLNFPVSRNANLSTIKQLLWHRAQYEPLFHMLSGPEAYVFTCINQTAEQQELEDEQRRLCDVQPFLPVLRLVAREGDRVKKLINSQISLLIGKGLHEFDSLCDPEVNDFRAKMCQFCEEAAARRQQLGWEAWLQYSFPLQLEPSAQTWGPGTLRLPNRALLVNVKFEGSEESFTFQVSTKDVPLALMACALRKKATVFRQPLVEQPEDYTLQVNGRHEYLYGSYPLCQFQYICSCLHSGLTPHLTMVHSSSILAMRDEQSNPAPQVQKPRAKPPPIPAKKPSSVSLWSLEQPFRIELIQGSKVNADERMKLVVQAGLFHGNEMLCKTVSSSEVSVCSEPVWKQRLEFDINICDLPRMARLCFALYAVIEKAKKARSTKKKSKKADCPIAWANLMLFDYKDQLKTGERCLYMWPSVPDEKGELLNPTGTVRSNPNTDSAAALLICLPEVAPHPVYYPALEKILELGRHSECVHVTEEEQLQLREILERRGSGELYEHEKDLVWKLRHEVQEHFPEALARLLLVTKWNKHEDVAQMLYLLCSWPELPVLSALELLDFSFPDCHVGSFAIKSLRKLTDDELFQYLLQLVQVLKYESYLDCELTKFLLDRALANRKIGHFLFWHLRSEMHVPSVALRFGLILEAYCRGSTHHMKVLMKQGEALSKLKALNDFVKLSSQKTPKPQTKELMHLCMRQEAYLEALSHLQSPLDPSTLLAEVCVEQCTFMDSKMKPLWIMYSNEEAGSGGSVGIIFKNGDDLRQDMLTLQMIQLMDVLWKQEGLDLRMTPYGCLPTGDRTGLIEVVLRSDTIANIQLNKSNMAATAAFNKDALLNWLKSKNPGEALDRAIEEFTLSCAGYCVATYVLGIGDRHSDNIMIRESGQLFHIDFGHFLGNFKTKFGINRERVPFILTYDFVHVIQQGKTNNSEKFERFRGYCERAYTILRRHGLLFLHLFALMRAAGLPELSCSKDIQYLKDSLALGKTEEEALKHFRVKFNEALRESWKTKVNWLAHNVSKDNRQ
Sequence (P27986 whole entry partner): as the sequence (P27986 whole entry partner, canonical isoform) above
pIC50: −log10 of the molar value.
assay-readout: pIC50

# compound, assay-readout, observed-measurement
measured = [
    ("Cc1cc(C(C)Nc2cccc(C(F)(F)F)c2)c2nc(N3CCOCC3)cc(=O)n2c1 (racemic)", "pIC50", 5.00),
    ("Cc1cc(C(C)Nc2ccc(Cl)c(Cl)c2)c2nc(N3CCOCC3)cc(=O)n2c1 (racemic)", "pIC50", 6.00),
    ("Cc1cc(C(C)Nc2cccc(Cl)c2)c2nc(N3CCOCC3)cc(=O)n2c1 (racemic)", "pIC50", 7.00),
    ("Cc1cc(C(C)Nc2ccc(Cl)cc2)c2nc(N3CCOCC3)cc(=O)n2c1 (racemic)", "pIC50", 5.70),
    ("Cc1cc(C(C)Nc2cc(F)cc(F)c2)c2nc(N3CCOCC3)cc(=O)n2c1 (racemic)", "pIC50", 7.10),
    ("Cc1cccc(NC(C)c2cc(C)cn3c(=O)cc(N4CCOCC4)nc23)c1 (racemic)", "pIC50", 6.00),
    ("Cc1cc(CN(C)c2ccccc2)c2nc(N3CCOCC3)cc(=O)n2c1 (racemic)", "pIC50", 6.30),
    ("Cc1cc(C(C)Nc2ccccn2)c2nc(N3CCOCC3)cc(=O)n2c1 (racemic)", "pIC50", 5.70),
]

---

Reported IC50 by item:
test system: PI 3-kinase immunoprecipitated from human platelets (p85/110 form); assay: In vitro PI 3-kinase assay (Example 8), Platelet IP (p85); type: biochemical; conditions: read-out: Platelet IP (p85) IC50s
assay-readout: IC50 (nM)

# compound, tested-target, unit-tag, observed-measurement
rows = [
    ("O=c1cc(-c2ccncc2)nc2c(NCCc3ccccc3)cccn12", "PI 3-kinase immunoprecipitated from human platelets (p85/110 form)", "nM", 1000),
    ("O=c1cc(-c2ccncc2)oc2c(NCc3ccccc3)cccc12", "PI 3-kinase immunoprecipitated from human platelets (p85/110 form)", "nM", 1000),
    ("Cc1cc(C(C)Nc2ccccc2)c2oc(-c3ccncc3)cc(=O)c2c1 (centres unmarked)", "PI 3-kinase immunoprecipitated from human platelets (p85/110 form)", "nM", 2),
    ("Cc1cc(C(C)n2c(C(F)(F)F)nc3ccccc32)c2oc(-c3ccncc3)cc(=O)c2c1 (centres unmarked)", "PI 3-kinase immunoprecipitated from human platelets (p85/110 form)", "nM", 50),
    ("Cc1cc(COc2ccccc2)c2oc(-c3ccncc3)cc(=O)c2c1", "PI 3-kinase immunoprecipitated from human platelets (p85/110 form)", "nM", 100),
]

---

biological target: p110δ-PI3K (Homo sapiens, UniProt O00329); construct: from tissue; host or cells: washed platelets (lysate, immunoprecipitated with anti-p110δ antibody); test: In vitro enzyme assay, p110δ immunoprecipitated from platelet lysate (Biological Example 1); type: biochemical; details: read-out: IC50 (μM), p110δ-PI3K

# compound, IC50
rows = [
    ("Cc1cc(C(C)Nc2ccccc2)c2nc(N3CCOCC3)cc(=O)n2c1 (racemic) [TGX-221]", "0.1 µM"),
]

---

target: ERK1 (Homo sapiens, UniProt P27361); experiment: Ser/Thr kinase assay by MDS Pharma Services (Panlabs); format: biochemical
assay-readout: IC50

# compound, tested-target, assay-readout, observed-measurement
data = [
    ("Cc1cc(C(C)Nc2ccccc2)c2nc(N3CCOCC3)cc(=O)n2c1 (racemic)", "ERK1 (Homo sapiens, UniProt P27361)", "IC50", "> 10 µM"),
]

---

biological target: UniProt P23443; assay: Ser/Thr kinase assay by MDS Pharma Services (Panlabs); type: biochemical

# molecule, tested-target, IC50
data = [
    ("Cc1cc(C(C)Nc2ccccc2)c2nc(N3CCOCC3)cc(=O)n2c1 (racemic)", "UniProt P23443", "> 10 µM"),
]

---

target: EGF Receptor (Homo sapiens, UniProt P00533); assay: Tyrosine kinase assay by MDS Pharma Services (Panlabs); type: biochemical
assay-readout: IC50

# compound, observed-measurement
rows = [
    ("Cc1cc(C(C)Nc2ccccc2)c2nc(N3CCOCC3)cc(=O)n2c1 (racemic)", "> 10 µM"),
]

---

system: PI 3-kinase immunoprecipitated from human platelets (p85/110 form); test: In vitro PI 3-kinase assay (Example 8), Platelet IP (p85); assay type: biochemical; conditions: read-out: Platelet IP (p85) IC50s
assay-readout: log10(IC50) (log10 of the value in nM)

# compound, tested-target, log10(IC50)
records = [
    ("O=c1cc(-c2ccncc2)oc2c(OCc3ccccc3)cccc12 [KN335]", "PI 3-kinase immunoprecipitated from human platelets (p85/110 form)", 3.00),
    ("O=c1cc(-c2ccncc2)[nH]c2c(-c3ccccc3)cccc12 [KN345, 8-phenyl-2-(4-pyridinyl)-4(1H)-quinoline]", "PI 3-kinase immunoprecipitated from human platelets (p85/110 form)", 3.70),
    ("O=c1cc(-c2ccncc2)oc2c(Nc3ccccc3)cccc12 [KN341]", "PI 3-kinase immunoprecipitated from human platelets (p85/110 form)", 2.70),
    ("Cc1cc(C(C)Nc2cccc(C(F)(F)F)c2)c2oc(-c3ccncc3)cc(=O)c2c1 (centres unmarked) [KN322]", "PI 3-kinase immunoprecipitated from human platelets (p85/110 form)", 3.00),
    ("Cc1cc(CNc2ccccc2)c2oc(-c3ccncc3)cc(=O)c2c1 [KN312]", "PI 3-kinase immunoprecipitated from human platelets (p85/110 form)", 1.70),
    ("Cc1cc(F)ccc1Oc1cccc2c(=O)cc(-c3ccncc3)[nH]c12 [KN337]", "PI 3-kinase immunoprecipitated from human platelets (p85/110 form)", 2.30),
    ("COc1cccc2c(=O)cc(-c3ccncc3)[nH]c12 [KN344]", "PI 3-kinase immunoprecipitated from human platelets (p85/110 form)", 3.70),
    ("O=c1cc(-c2ccncc2)oc2c(Nc3cccc(F)c3)cccc12 [KN351]", "PI 3-kinase immunoprecipitated from human platelets (p85/110 form)", 2.70),
]

---

target: HER2 Receptor (Homo sapiens); test: Tyrosine kinase assay by MDS Pharma Services (Panlabs); type: biochemical
Sequence (P04626 23-1255): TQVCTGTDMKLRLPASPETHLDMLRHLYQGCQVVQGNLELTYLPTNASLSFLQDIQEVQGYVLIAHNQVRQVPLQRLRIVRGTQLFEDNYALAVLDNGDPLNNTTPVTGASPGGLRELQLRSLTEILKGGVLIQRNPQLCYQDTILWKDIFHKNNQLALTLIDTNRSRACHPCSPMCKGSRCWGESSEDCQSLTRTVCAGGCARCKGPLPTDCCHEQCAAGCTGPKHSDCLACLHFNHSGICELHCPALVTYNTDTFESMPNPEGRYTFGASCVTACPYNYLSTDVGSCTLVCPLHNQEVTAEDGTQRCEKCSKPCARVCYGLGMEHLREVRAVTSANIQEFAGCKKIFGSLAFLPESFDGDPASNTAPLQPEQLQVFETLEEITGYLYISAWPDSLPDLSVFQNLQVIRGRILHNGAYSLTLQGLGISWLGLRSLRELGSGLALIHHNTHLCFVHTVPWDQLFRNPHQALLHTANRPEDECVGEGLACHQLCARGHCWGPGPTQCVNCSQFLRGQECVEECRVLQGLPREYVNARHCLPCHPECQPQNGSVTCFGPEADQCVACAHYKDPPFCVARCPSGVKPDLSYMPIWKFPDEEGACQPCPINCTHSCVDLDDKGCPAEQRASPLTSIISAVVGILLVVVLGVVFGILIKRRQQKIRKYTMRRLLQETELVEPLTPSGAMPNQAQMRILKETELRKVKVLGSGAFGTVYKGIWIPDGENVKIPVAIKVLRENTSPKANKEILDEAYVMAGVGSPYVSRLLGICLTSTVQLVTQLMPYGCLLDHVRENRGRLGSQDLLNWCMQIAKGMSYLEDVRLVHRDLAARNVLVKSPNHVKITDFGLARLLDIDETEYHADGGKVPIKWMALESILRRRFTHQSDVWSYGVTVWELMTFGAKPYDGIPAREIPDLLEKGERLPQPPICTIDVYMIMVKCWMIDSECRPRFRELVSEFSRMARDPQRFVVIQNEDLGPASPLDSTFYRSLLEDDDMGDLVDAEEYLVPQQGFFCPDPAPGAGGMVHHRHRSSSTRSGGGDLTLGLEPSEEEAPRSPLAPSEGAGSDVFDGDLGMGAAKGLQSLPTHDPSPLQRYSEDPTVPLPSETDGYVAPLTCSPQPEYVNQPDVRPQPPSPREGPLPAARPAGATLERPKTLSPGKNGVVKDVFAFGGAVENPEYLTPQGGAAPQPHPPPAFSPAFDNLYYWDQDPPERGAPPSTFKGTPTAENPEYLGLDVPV

# compound, tested-target, IC50
data = [
    ("Cc1cc(C(C)Nc2ccccc2)c2nc(N3CCOCC3)cc(=O)n2c1 (racemic)", "HER2 Receptor (Homo sapiens)", "> 10 µM"),
]

---

system: U937 cells; test: Cell proliferation assay; assay type: cell-based; conditions: Homo sapiens, U-937; read-out: Anti-proliferative activity v. U937 cells Example 16 IC50/
assay-readout: IC50 (µM)

# molecule, observed-measurement
rows = [
    ("Cc1cc(C(C)Nc2ccccc2)c2oc(-c3ccncc3)cc(=O)c2c1 (stereo not shown)", 5),
]

---

tested on: PI 3-kinase immunoprecipitated from human platelets (p85/110 form); test: In vitro PI 3-kinase assay (Example 8), Platelet IP (p85); assay type: biochemical; conditions: read-out: Platelet IP (p85) IC50s
pIC50: −log10 of the molar value.
Reported pIC50 by item:
assay-readout: pIC50

# compound, tested-target, bound-operator, observed-measurement
rows = [
    ("O=c1cc(-c2ccncc2)[nH]c2c(Cc3ccccc3)cccc12", "PI 3-kinase immunoprecipitated from human platelets (p85/110 form)", "<", 5.00),
    ("Cc1cc(C(C)Nc2ccc(F)cc2C)c2oc(-c3ccncc3)cc(=O)c2c1 (centres unmarked)", "PI 3-kinase immunoprecipitated from human platelets (p85/110 form)", "=", 8.00),
    ("O=c1cc(-c2ccncc2)nc2c(Cc3ccccc3)cccn12", "PI 3-kinase immunoprecipitated from human platelets (p85/110 form)", "=", 6.30),
    ("O=c1cc(-c2ccncc2)[nH]c2c(Oc3ccccc3)cccc12", "PI 3-kinase immunoprecipitated from human platelets (p85/110 form)", "=", 6.30),
    ("Cc1cc(C(C)Nc2cccc(C)n2)c2oc(-c3ccncc3)cc(=O)c2c1 (centres unmarked)", "PI 3-kinase immunoprecipitated from human platelets (p85/110 form)", "=", 7.00),
]

Where do the numbers come from? From patent US7598377B2.
